The entries below come with measured pKd values attached.
- experimental.target: Klebsiella pneumoniae DsbA (K. pneumoniae)
- test.protocol: ITC; peptide (3 mM) titrated into 100 μM DsbA in the cell; 25 mM HEPES, 50 mM NaCl, pH 7.4, DMSO 0.8 %; 25 °C by the methods (20 °C by the footnote of Table 4); single-site binding model; apparent Kd; triplicate
pKd: −log10 of the molar value.

- substance: "EcDsbB P2 loop peptide PSPFATCD"
  pKd: 4.75
- substance: "KpDsbB P2 loop peptide PSPFQTCD"
  pKd: 4.78
